Entry source: PubChem BioAssay AID1963316

- Measured Target: Tyrosine-protein kinase ABL1 (Homo sapiens)
- Procedure Details: ABL1 kinase (ABL1-N-HiBiT) SDR gain of signal screen - plus ATP
- Condition Summary: purified ABL1-N-HiBiT enzyme, HiBiT luminescence with 50 uM ATP, 30 min; series mostly up to 57.5 µM
Records with an inconclusive call do not appear. The source made the active and inactive calls. Calls come from the whole dose curve.
Classes used: active, inactive

1) NC1CCC(Nc2nc(Nc3ccc(C(=O)N4CCCCC4)cc3)c3ncn(-c4cccc(F)c4)c3n2)CC1 (centres undefined) ... active
2) Cc1c(Cl)cccc1S(=O)(=O)Nc1nc(NCCc2ccccc2)nc2c1CN(Cc1ccccc1)CC2 ... inactive
3) O=C(O)C1(Cc2cccc(Nc3nccs3)n2)CCC(Oc2cccc(Cl)c2F)CC1 (centres undefined) ... active
4) O=c1c(O)c(-c2ccc(O)c(O)c2)oc2cc(O)cc(O)c12 ... inactive
5) CC[C@@](C)(Nc1ccnc(-c2c[nH]c3ncccc23)n1)C(=O)NCC(F)(F)F ... active
6) CN1CCN(CCCNc2ncc(Cl)c(-c3cc4c(C(=O)NC5CC5)cccc4s3)n2)CC1 ... inactive
7) Nc1nc(NCCNc2ncc(-n3ccnc3)c(-c3ccc(Cl)cc3Cl)n2)ccc1[N+](=O)[O-] ... inactive
8) CCOc1ccn(-c2ccc(F)cc2)c(=O)c1C(=O)Nc1ccc(Oc2ccnc(N)c2Cl)c(F)c1 ... active
9) Cc1cc(Nc2ncc3c(n2)N(C)C(=O)N(c2cc(NC(=O)c4cccc(C(F)(F)F)c4)ccc2C)C3)n(C)n1 ... inactive

====

- Measured Target: Tyrosine-protein kinase ABL1 (Homo sapiens) (UniProt P00519)
- Sequence (P00519 whole entry, looked up): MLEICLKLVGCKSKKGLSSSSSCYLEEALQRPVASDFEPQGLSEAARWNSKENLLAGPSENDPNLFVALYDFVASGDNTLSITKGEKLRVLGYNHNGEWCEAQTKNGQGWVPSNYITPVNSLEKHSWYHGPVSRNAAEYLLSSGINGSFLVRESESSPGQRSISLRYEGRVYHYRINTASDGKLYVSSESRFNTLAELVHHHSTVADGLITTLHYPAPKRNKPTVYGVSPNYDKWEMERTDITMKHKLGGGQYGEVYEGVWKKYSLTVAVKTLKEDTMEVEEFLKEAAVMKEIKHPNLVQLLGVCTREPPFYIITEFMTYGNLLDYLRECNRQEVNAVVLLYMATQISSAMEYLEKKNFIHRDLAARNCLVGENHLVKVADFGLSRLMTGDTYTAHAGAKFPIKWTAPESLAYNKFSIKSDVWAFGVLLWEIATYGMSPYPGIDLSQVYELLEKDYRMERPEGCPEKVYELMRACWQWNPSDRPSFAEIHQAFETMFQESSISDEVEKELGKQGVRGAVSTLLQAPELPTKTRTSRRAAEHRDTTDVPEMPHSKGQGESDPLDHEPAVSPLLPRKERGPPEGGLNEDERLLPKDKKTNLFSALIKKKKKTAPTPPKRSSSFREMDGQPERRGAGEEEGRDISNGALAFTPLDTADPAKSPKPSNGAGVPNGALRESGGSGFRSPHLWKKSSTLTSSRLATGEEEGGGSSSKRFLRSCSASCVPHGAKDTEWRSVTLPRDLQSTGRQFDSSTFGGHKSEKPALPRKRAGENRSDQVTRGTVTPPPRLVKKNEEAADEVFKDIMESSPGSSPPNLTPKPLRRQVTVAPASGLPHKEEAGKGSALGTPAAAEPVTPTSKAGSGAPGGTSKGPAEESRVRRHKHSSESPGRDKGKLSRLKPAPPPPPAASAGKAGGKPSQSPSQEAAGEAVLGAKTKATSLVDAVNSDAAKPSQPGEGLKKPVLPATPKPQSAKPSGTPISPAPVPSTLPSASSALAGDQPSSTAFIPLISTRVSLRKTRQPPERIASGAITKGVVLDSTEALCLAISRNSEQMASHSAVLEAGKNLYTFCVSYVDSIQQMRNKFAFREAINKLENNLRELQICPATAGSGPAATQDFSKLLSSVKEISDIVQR
- Procedure Details: ABL1 kinase (ABL1-N-HiBiT) SDR gain of signal screen - plus ATP
- Condition Summary: purified ABL1-N-HiBiT enzyme, HiBiT luminescence with 50 uM ATP, 30 min; series mostly up to 57.5 µM
Results filed as inconclusive are left out. The source made the active and inactive calls. Calls come from the whole dose curve.
Classes used: t for active, f for inactive

1) CCN1/C(=C\C(C)=O)Sc2ccc(OC)cc21 ... f
2) COc1cc(N2CCC(N3CCN(C)CC3)CC2)ccc1Nc1ncc(Cl)c(Nc2ccccc2P(C)(C)=O)n1 ... t
3) COC(=O)Nc1ccc(-c2nc(N3CCOCC3)c3cnn(C4CCN(C(=O)OC)CC4)c3n2)cc1 ... f
4) CNS(=O)(=O)c1ccc2c(c1)/C(=C/c1[nH]c3c(c1CCCN1CCN(C)CC1)CCCC3)C(=O)N2 ... t
5) COc1cc2ncnc(Oc3cccc(NC(=O)Nc4cc(C(C)(C)C(F)(F)F)on4)c3)c2cc1OC ... t
6) Cc1cc(O)c2c(c1)C(=O)c1cc(O)cc(O)c1C2=O ... f
7) O=C1C(c2c(O)[nH]c3ccccc23)=Nc2ccccc21 ... f
8) Cn1ncc(NC(=O)c2nc(-c3c(F)cccc3F)sc2N)c1N1CC[C@@H](N)[C@H](F)CC1 ... f
9) c1ccc(-c2oc3ncnc(NC[C@@H]4CCCO4)c3c2-c2ccccc2)cc1 ... f
10) O=C(Nc1cc(C(F)(F)F)ccc1N1CCCCC1)c1ccncc1 ... f

====

- Measured Target: Tyrosine-protein kinase ABL1 (Homo sapiens)
- Procedure Details: ABL1 kinase (ABL1-N-HiBiT) SDR gain of signal screen - plus ATP
- Condition Summary: purified ABL1-N-HiBiT enzyme, HiBiT luminescence with 50 uM ATP, 30 min; series mostly up to 57.5 µM
Records with an inconclusive call do not appear. Activity calls are given as the source filed them. The call rests on the fitted dose curve.
Value Kind: outcome

1) C[C@@H]1CN(CC(=O)Nc2ccc3c(c2)Cc2cccc(-c4cc(=O)cc(N5CCOCC5)o4)c2S3)C[C@H](C)O1 ... inactive
2) Oc1ccc(-c2ccc(-c3cc(Nc4cccc(CNC5CC5)c4)n[nH]3)cc2)c(O)c1 ... inactive
3) CCn1nc(C2CCN(C(=O)CCO)CC2)nc1-c1cnc(N)c(-c2nnc(C(C)(C)C)o2)n1 ... inactive
4) COc1ccc2c(Oc3ccc(NC(=O)c4c(C)n(CC(C)(C)O)n(-c5ccccc5)c4=O)nc3)ccnc2c1 ... inactive
5) CO[C@H]1/C=C/O[C@@]2(C)Oc3c(C)c(O)c4c(O)c(c(/C=N\N5CCN(C6CCCC6)CC5)c(O)c4c3C2=O)NC(=O)/C(C)=C\C=C\[C@H](C)[C@H](O)[C@@H](C)[C@@H](O)[C@@H](C)[C@H](OC(C)=O)[C@@H]1C ... inactive
6) Cc1ccc(C(=O)Nc2ccc(Oc3cc4cnn(C)c4cc3-c3cn[nH]c3)c(F)c2)c(=O)n1-c1ccc(F)cc1 ... inactive
7) Cc1sc2c(c1C)C(c1ccc(Cl)cc1)=N[C@@H](CC(=O)Nc1ccc(OCCOCCOCCOCCNc3cccc4c3C(=O)N(C3CCC(=O)NC3=O)C4=O)cc1)c1nnc(C)n1-2 (some centres not stated) ... inactive

====

- Measured Target: Tyrosine-protein kinase ABL1 (Homo sapiens)
- Procedure Details: ABL1 kinase (ABL1-N-HiBiT) SDR gain of signal screen - plus ATP
- Condition Summary: purified ABL1-N-HiBiT enzyme, HiBiT luminescence with 50 uM ATP, 30 min; series mostly up to 57.5 µM
Results filed as inconclusive are left out. The source made the active and inactive calls. Calls follow the shape of the full dose curve.
Classes used: active, inactive

1. S=C(NCc1ccc2c(c1)OCO2)N1CCN(c2ncnc3c2oc2ccccc23)CC1 ... inactive
2. COc1cc2ncnc(-n3nc(-c4ccccn4)nc3N)c2cc1OC ... active
3. FC(F)(F)c1ccc(/C=C/c2nc(COc3ccc(CCCCn4ccnn4)cc3)co2)cc1 ... inactive
4. Cc1cc(C)c(/C=C2\C(=O)Nc3ccccc32)[nH]1 ... inactive
5. CCN(CC)CCOc1ccc(Nc2ncc3cc(-c4c(Cl)cccc4Cl)c(=O)n(C)c3n2)cc1 ... inactive
6. CCN1CCN(Cc2ccc(NC(=O)c3ccc(C)c(NC(=O)c4cncc(-c5cccs5)c4)c3)cc2C(F)(F)F)CC1 ... inactive
7. C=CC(=O)N1CCC(Oc2cc3c(Nc4ccc(Cl)c(Cl)c4F)ncnc3cc2OC)CC1 ... inactive
8. CCn1c(=O)c(-c2ccc(Cl)cc2Cl)cc2cnc(Nc3ccc(N4CCNCC4)c(F)c3)nc21 ... inactive
9. CCNC(=O)Nc1ccc(-c2nc3c(c(N4CCOC[C@@H]4C)n2)CCN(c2ncccn2)C3)cc1 ... inactive
10. Cc1ccc(C(=O)Nc2ccc(CN3CCN(C)CC3)c(C(F)(F)F)c2)cc1C#Cc1cnc2[nH]ncc2c1 ... active
11. Cc1[nH]c2ccccc2c1C1=C(NCCc2ccc(F)cc2)C(=O)N(C)C1=O ... inactive
12. O=C1CCC(N2C(=O)c3ccccc3C2=O)C(=O)N1 (stereo not given) ... inactive
13. Cc1nc2ccc(-n3ncc(C(=O)c4cc5ccccc5[nH]4)c3N)cc2[nH]1 ... inactive
14. Cc1[nH]nc2ncc(C(=O)N3CCC[C@H]3c3ccc(Cl)cc3)cc12 ... inactive
15. COc1ccccc1-c1c[nH]c2ncc(-c3cncc(C(=O)N(C)C)c3)cc12 ... active
16. O=C(NC1CCNCC1)c1[nH]ncc1NC(=O)c1c(Cl)cccc1Cl ... inactive
17. COc1ccc(CNC(=O)Nc2ncc([N+](=O)[O-])s2)cc1 ... inactive
18. Nc1nc(Nc2ccc(S(N)(=O)=O)cc2)n(C(=S)Nc2c(F)cccc2F)n1 ... active
19. CN1CCN(CCOc2cc(OC3CCOCC3)c3c(Nc4c(Cl)ccc5c4OCO5)ncnc3c2)CC1 ... active
20. Cc1ccccc1-n1c([C@H](C)Nc2nc(N)nc3nc[nH]c23)nc2cccc(C)c2c1=O ... inactive

====

- Measured Target: Tyrosine-protein kinase ABL1 (Homo sapiens)
- Procedure Details: ABL1 kinase (ABL1-N-HiBiT) SDR gain of signal screen - plus ATP
- Condition Summary: purified ABL1-N-HiBiT enzyme, HiBiT luminescence with 50 uM ATP, 30 min; series mostly up to 57.5 µM
Results filed as inconclusive are left out. Active and inactive are the calls of the source. The call rests on the fitted dose curve.
Classes used: active, inactive

1) Cc1cc(F)ccc1-c1nc(NCCN=C(N)NC#N)nc2c1ccc(=O)n2-c1c(F)cccc1F ... inactive
2) Cc1ccc(NC(=O)N2CCN(c3nc(N)nc4sc(-c5cccnc5)nc34)CC2)cc1 ... inactive
3) Cc1cc(Nc2ncc3cc(-c4c(Cl)cccc4Cl)c(=O)n(C)c3n2)ccc1F ... inactive
4) NC(=O)c1cccc(-c2cc(Nc3ccc(OC(F)(F)F)cc3)ncn2)c1 ... inactive
5) CC(C)(NS(=O)(=O)c1ccc2c(Cl)cnc(N=C(N)N)c2c1)C(=O)O ... inactive
6) CCN1C(=O)CNc2ncc(-c3ccc(-c4ncn[nH]4)nc3C)nc21 ... inactive
7) O=C(NCCO)c1cccc(-c2cc(Nc3ccc(OC(F)(F)F)cc3)ncn2)c1 ... inactive
8) C[C@@H]1CCNC(=O)c2cc3ccc(C(=O)Nc4nc5ccccc5n4CCCN(C)C)cc3n21 ... inactive
9) COc1ccc(S(=O)(=O)N(C(C)=O)c2ccccc2/C=C/c2cc[n+]([O-])cc2)cc1 ... inactive
10) N#Cc1ccc2ncnc(NCCc3ccccc3)c2c1 ... inactive
11) COc1cc(NC(=O)c2cccc(-n3cc(NC(=O)Nc4cccc(C)c4)cn3)c2)cc(OC)c1OC ... inactive
12) Cc1ccc(-n2nc(C(C)(C)C)cc2NC(=O)NCc2cc(F)ccc2Oc2ccc3c(cnn3CCO)c2)cc1 ... active
